The entries below come with measured bioavailability values attached.
Assay: Oral bioavailability in human
Settings: in vivo, F
Reply with the number, then its unit.

- Cc1cccc(OC[C@@H](O)CNC(C)C)c1 [(S)-TOLIPROLOL]: 90%

## Input Using the record for CCOC(=O)C1=C(C)NC(C)=C(C(=O)OC)[C@H]1c1cccc(Cl)c1Cl [(R)-FELODIPINE] , report its bioavailability.
## Output 15%

## Input Using the record for O=C(CCCN1CCC(O)(c2ccc(Cl)cc2)CC1)c1ccc(F)cc1 [HALOPERIDOL] , report its bioavailability.
## Output 60%

## Input Using the record for COc1ccc(OC)c([C@H](O)CNC(=O)CN)c1 [(S)-MIDODRINE] , report its bioavailability.
## Output 93%

## Input Using the record for C#C[C@]1(O)CC[C@H]2[C@@H]3CCc4cc(O)ccc4[C@H]3CC[C@@]21C [ETHINYL ESTRADIOL] , report its bioavailability.
## Output 40%
